# experimental.system: Bcl-2 protein (Recombinant Human Bcl-2 Protein) (Homo sapiens, UniProt P10415)
# Construct: purchased Novus Biologicals NBP2-34889
# Sequence (P10415 whole entry): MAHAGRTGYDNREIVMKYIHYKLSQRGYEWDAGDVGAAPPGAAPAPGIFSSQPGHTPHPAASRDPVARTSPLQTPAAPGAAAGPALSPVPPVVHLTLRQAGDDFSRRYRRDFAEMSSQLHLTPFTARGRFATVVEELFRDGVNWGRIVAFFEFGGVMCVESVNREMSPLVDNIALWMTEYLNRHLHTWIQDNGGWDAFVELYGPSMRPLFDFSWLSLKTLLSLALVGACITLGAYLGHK
# procedure.details: AS-MS evaluation of binding of the Example 4 mixture library (1200 compounds/well) to Bcl-2, ASMS ratio (%)
# reported.conditions: replicate n = 2; mixture library; value belongs to the MS peak assigned to the compound
endpoint.name: ASMS ratio (%) n = 2
Expressed in %, but write only the number.

Req: Look at this molecule and give its reported ASMS ratio (%) n = 2. CCOc1cncc(C#Cc2ccccc2CN2CCN(c3ccc(C(=O)NS(C)(=O)=O)nn3)CC2)c1
Resp: 0.0

Req: Look at this molecule and give its reported ASMS ratio (%) n = 2. CCOc1cncc(-c2cc(CN3CCN(c4ccc(C(=O)NS(C)(=O)=O)nn4)CC3)cc(C(F)(F)F)c2)c1
Resp: 0.0

Req: Look at this molecule and give its reported ASMS ratio (%) n = 2. CCOc1cccc(-c2ccc(C(C)N3CCN(c4ccc(C(=O)NS(C)(=O)=O)cc4)CC3)c(F)c2)c1 (stereo not shown)
Resp: 0.0

Req: Look at this molecule and give its reported ASMS ratio (%) n = 2. CCOc1cncc(-c2ccc(CN3CCN(c4ccc(C(=O)NS(=O)(=O)C(C)(C)C)cc4)CC3)c(CC)c2)c1
Resp: 0.0

Req: Look at this molecule and give its reported ASMS ratio (%) n = 2. CCOc1cncc(-c2ccc(CN3CCN(c4ccc(C(=O)NS(C)(=O)=O)cc4)CC3)c(OC)c2)c1
Resp: 0.0

Req: Look at this molecule and give its reported ASMS ratio (%) n = 2. CCOc1cccc(-c2cc(CN3CCN(c4ccc(C(=O)NS(C)(=O)=O)nn4)CC3)cc(OC(C)C)c2)c1
Resp: 0.0

Req: Look at this molecule and give its reported ASMS ratio (%) n = 2. CCOc1cncc(C#Cc2cc(C(=O)N3CCN(c4ccc(C(=O)NS(=O)(=O)C(C)(C)C)nn4)CC3)cc(C(F)(F)F)c2)c1
Resp: 0.0

Req: Look at this molecule and give its reported ASMS ratio (%) n = 2. CCOc1cncc(-c2ccccc2CN2CCN(c3ccc(C(=O)NS(=O)(=O)C(C)(C)C)cc3)CC2)c1
Resp: 0.0

Req: Look at this molecule and give its reported ASMS ratio (%) n = 2. CCOc1cncc(-c2ccc(C(=O)N3CCN(c4ccc(C(=O)NS(=O)(=O)C(C)(C)C)nn4)CC3)c3ccccc23)c1
Resp: 0.5

Req: Look at this molecule and give its reported ASMS ratio (%) n = 2. CCOc1cncc(-c2ccc(C(=O)N3CCN(c4ccc(C(=O)NS(=O)(=O)C(C)(C)C)nn4)CC3)cc2C)c1
Resp: 9.3

Req: Look at this molecule and give its reported ASMS ratio (%) n = 2. CCOc1cccc(-c2ccc(CN3CCN(c4ccc(C(=O)NS(C)(=O)=O)nn4)CC3)c(OC)c2)c1
Resp: 0.0

Req: Look at this molecule and give its reported ASMS ratio (%) n = 2. CCOc1cncc(-c2ccc(C(=O)N3CCN(c4ccc(C(=O)NS(=O)(=O)C(C)(C)C)cc4)CC3)c3ccccc23)c1
Resp: 0.0

Req: Look at this molecule and give its reported ASMS ratio (%) n = 2. CCOc1cncc(C#Cc2cncc(C(=O)N3CCN(c4ccc(C(=O)NS(=O)(=O)C(C)(C)C)cc4)CC3)c2)c1
Resp: −1.0
